# Assayed System: MAGE-A11:PCF11 (Homo sapiens (Human))
# Method: TR-FRET single point screening at 15 μM
# Format: binding
# Design: unit not given here
# Test Conditions: single point TR-FRET screening of quinoline compounds against MAGE-A11:PCF11; 15 μM
Observable: TR-FRET signal
// keep it numeric: no unit symbol after the value

Query: So what does the record say about TR-FRET signal for c1ccc(Cc2ccc3c(NCCCNCc4ccco4)ccnc3c2)cc1 ?
Response: 64.54

====

# Assayed System: interaction between GST-MAGEA11 MHD and FAM-PCF11_4 peptide (MAGE-A11:PCF11) (Homo sapiens (Human), UniProt P43364)
# Sequence (P43364 218-429): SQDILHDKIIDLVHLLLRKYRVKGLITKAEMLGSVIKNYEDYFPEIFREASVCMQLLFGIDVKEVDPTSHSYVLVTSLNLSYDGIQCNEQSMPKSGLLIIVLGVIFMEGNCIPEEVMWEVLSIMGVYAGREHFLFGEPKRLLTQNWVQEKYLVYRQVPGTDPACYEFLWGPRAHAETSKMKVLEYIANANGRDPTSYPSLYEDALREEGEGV
# Method: TR-FRET dose response competition assay for disruption of MAGE-A11:PCF11 binding
# Test Conditions: Dose response TR-FRET screening of nine scaffold groups against MAGE-A11:PCF11; read-out: consensus IC50
Observable: IC50
Give the number first and the unit second.

{"Molecule": "Cn1c(=O)c2nc(-c3ccc(S(=O)(=O)O)cc3)[nH]c2n(C)c1=O", "IC50": "21.8 µM"}
{"Molecule": "CCCn1c(=O)[nH]c(=O)c2c1nc(-c1ccc(C#N)cc1)n2CCN1CCOCC1", "IC50": "69.9 µM"}
{"Molecule": "O=C1C(Cl)=C(NC(=O)C(F)(F)F)C(=O)c2ccccc21", "IC50": "9.87 µM"}
{"Molecule": "Fc1ccc(Cc2ccc3c(NCCCNCc4cccc5c4OCO5)ccnc3c2)c(Cl)c1", "IC50": "20.6 µM"}
{"Molecule": "CCc1ccc(-c2nc3c(c(=O)[nH]c(=O)n3CC(C)C)n2CCOC)cc1", "IC50": "69.9 µM"}
{"Molecule": "Clc1ccc2c(NCCCNCc3ccc4c(c3)OCO4)ccnc2c1", "IC50": "69.9 µM"}

Query: So what does the record say about IC50 for CCOc1ccc(Nc2nc(N)c3ccccc3n2)cc1 ?
Response: 69.9 µM

Query: Consider next the molecule c1cc(CNCCCNc2ccnc3cc(-c4ccc5c(c4)OCO5)ccc23)c2c(c1)OCO2 in the same way.
Response: 30.5 µM

Query: Consider next the molecule C=C(C)CN(CC)C(=O)Cn1cnc2cc(-c3ccc(OC)cc3)sc2c1=O in the same way.
Response: 69.9 µM

====

# Assayed System: MAGE-A11:PCF11 (Homo sapiens (Human))
# Method: TR-FRET single point screening at 15 μM
# Format: binding
# Parameters: unit not given here
# Test Conditions: single point TR-FRET screening of quinoline compounds against MAGE-A11:PCF11; 15 μM
// class assignment uses TR-FRET signal with these ranges: bin 0 = under 3, bin 1 = from 3 up to 9, bin 2 = 9 and over

Consider the worked cases shown below.
{"Molecule": "Cc1ccc(CN(CCCNc2ccnc3cc(Cl)ccc23)Cc2ccccc2)o1 [SJ000312669]", "Assayed System": "MAGE-A11:PCF11 (Homo sapiens (Human))", "Label Value": "bin 0"}
{"Molecule": "C#Cc1ccccc1CN(CCC)CCCNc1ccnc2cc(Cl)ccc12 [SJ000523000]", "Assayed System": "MAGE-A11:PCF11 (Homo sapiens (Human))", "Label Value": "bin 2"}
{"Molecule": "CCCN(CCCNc1c2ccc(Cl)cc2nc2ccc(OC)cc12)Cc1ccc(C)o1 [SJ000520932]", "Assayed System": "MAGE-A11:PCF11 (Homo sapiens (Human))", "Label Value": "bin 0"}
{"Molecule": "CCCN(CCCNc1c2ccc(Cl)cc2nc2ccc(OC)cc12)CC(C)C [SJ000575150]", "Assayed System": "MAGE-A11:PCF11 (Homo sapiens (Human))", "Label Value": "bin 0"}
{"Molecule": "CCCN(CCCNc1ccnc2cc(Cl)ccc12)Cc1cncc(Br)c1 [SJ000523004]", "Assayed System": "MAGE-A11:PCF11 (Homo sapiens (Human))", "Label Value": "bin 1"}
{"Molecule": "CCCN(CCCNc1ccnc2cc(C(F)(F)F)ccc12)Cc1nccn1C [SJ000575170]", "Assayed System": "MAGE-A11:PCF11 (Homo sapiens (Human))", "Label Value": "bin 1"}

Query: # classify by TR-FRET signal band: Clc1ccc2c(NCCCN(CCCc3ccccc3)Cc3ccccc3)ccnc2c1 [SJ000361185]
Response: bin 1

Query: Consider next the molecule Cn1ccnc1CNCCCNc1ccnc2cc(C(F)(F)F)ccc12 [SJ000521068] in the same way.
Response: bin 2
